- assayTarget: G9a (Homo sapiens)
- Sequence (Q96KQ7 whole entry): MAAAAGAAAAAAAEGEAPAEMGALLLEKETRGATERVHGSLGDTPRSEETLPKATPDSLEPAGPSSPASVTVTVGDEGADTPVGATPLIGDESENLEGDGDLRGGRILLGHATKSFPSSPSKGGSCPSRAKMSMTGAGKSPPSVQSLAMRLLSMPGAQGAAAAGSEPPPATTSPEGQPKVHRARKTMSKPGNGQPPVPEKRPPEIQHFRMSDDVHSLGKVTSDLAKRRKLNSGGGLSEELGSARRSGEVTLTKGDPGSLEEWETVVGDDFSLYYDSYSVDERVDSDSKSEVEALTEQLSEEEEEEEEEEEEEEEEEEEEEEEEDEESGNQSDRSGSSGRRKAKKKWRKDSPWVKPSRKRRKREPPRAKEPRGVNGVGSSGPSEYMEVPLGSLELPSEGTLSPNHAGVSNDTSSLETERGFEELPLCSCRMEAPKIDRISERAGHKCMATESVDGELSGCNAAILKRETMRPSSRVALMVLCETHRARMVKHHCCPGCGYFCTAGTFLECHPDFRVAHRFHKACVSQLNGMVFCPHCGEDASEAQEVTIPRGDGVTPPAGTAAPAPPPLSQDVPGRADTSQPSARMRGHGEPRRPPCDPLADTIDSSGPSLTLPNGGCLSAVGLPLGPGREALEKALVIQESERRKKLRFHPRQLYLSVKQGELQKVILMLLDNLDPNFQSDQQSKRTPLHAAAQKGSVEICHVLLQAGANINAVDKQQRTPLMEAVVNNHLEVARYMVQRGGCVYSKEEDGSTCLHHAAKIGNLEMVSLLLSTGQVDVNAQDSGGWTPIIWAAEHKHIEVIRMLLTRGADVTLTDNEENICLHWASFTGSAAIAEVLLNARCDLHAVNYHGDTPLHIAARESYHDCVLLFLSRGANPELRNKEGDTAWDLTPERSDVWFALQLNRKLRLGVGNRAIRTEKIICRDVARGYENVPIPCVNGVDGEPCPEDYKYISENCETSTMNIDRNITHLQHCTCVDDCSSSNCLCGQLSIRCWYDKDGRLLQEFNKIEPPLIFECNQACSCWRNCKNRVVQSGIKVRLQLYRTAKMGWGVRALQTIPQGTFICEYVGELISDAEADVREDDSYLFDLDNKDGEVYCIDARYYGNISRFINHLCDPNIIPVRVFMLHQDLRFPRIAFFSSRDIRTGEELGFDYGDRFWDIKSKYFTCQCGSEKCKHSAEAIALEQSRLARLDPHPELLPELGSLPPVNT
- testProtocol: Western blot of G9a protein levels in cancer cells
- Type: cell-based
- experimentalSetup: 22Rv1 cells, 0.3 or 3 μM, 24 h, WB
propertyName: G9a degradation, in words

Given the entry COc1cc2c(NC3CCN(CCCC(=O)NCCOCCOCCOCCC(=O)N[C@H](C(=O)N4C[C@H](O)C[C@H]4C(=O)NCc4ccc(-c5scnc5C)cc4)C(C)(C)C)CC3)nc(N3CCC(F)(F)CC3)nc2cc1OCCCN1CCCC1 [Compound 13] , report its measured G9a degradation, in words. little or no degradation

Request: COc1cc2c(NC3CCN(CCCC(=O)NCCOCCOCCC(=O)N[C@H](C(=O)N4C[C@H](O)C[C@H]4C(=O)NCc4ccc(-c5scnc5C)cc4)C(C)(C)C)CC3)nc(N3CCC(F)(F)CC3)nc2cc1OCCCN1CCCC1 [Compound 12] little or no degradation

====

- testProtocol: Mouse PK study, single IP administration
- Type: in vivo
- experimentalSetup: C57BL/6 mice, IP, 50 mg/kg, plasma, HCl salt form
propertyName: Cmax
# output: number + unit

Given the entry COc1cc2c(NC3CCN(CCCC(=O)NCCCCCCCCCCCC(=O)N[C@H](C(=O)N4C[C@H](O)C[C@H]4C(=O)NCc4ccc(-c5scnc5C)cc4)C(C)(C)C)CC3)nc(N3CCC(F)(F)CC3)nc2cc1OCCCN1CCCC1 , report its measured Cmax. 27 µM

Origin of the recorded values: paper PMC10925177
